- System: HOP-62 NSCLC
- METHOD: NCI tumour cell line growth inhibition, 48 h
The entries below come with measured TGI values attached.
VALUE TYPE: TGI

>>> data_value("COc1ccc(CC(O)CN2CCOCC2)cc1 (centres undefined)")
"> 100 µM"
>>> data_value("Cc1cc(N(CCC#N)CCC#N)ccc1/C=C1N=C(/C=C/c2ccccc2)OC(=O)N\\1")
"> 100 µM"
>>> data_value("CC(=O)[O-].CC(=O)[O-].CC(=O)[O-].CC(=O)[O-].[Mo+2].[Mo+2]")
"> 100 µM"
>>> data_value("CCOc1cc(C2CC(c3ccc(NS(=O)(=O)c4cc([N+](=O)[O-])ccc4C)cc3)=NN2C(=O)c2ccccc2)ccc1O (centres undefined)")
"47.2 µM"

----------
The entries below come with measured TGI values attached.
- Test system: A549 NSCLC
- METHOD: NCI tumour cell line growth inhibition, 48 h
VALUE TYPE: TGI

>>> data_value("C=CCO/N=C/c1cc(NC(=S)c2ccoc2C)ccc1Cl")
"> 100 µM"
>>> data_value("CC(=O)NNc1nc(C)c(C(=O)NNC(=O)C(=O)Nc2nc3ccc([N+](=O)[O-])cc3s2)s1")
"> 100 µM"
>>> data_value("O=S(=O)(O)c1cc2ccc1/C=C\\c1ccc(cc1S(=O)(=O)O)N=Nc1ccc(c(S(=O)(=O)O)c1)/C=C\\c1ccc(cc1S(=O)(=O)O)N=N2")
"> 100 µM"
>>> data_value("O=P(c1ccccc1)(c1ccccc1)N1O[C@@H](c2ccccc2)C=C[C@H]1c1ccccc1")
"24 µM"
>>> data_value("CC1CCCc2c1nn(C(=O)/C=C(\\N)c1ccccc1)c2N (stereo not given)")
"> 100 µM"

----------
- System: 786-0 renal
- METHOD: NCI tumour cell line growth inhibition, 48 h
The entries below come with measured TGI values attached.
VALUE TYPE: TGI

>>> data_value("O=C1c2cccnc2-c2nc(-c3ccncc3)cc3c2c1nc1ccccc13")
"39.9 µM"
>>> data_value("O=C(O)CCC(NC(=S)S)C(=O)O.[Na+].[Zn+2] (configuration not stated)")
"> 50 µM"
>>> data_value("N#CCCN(CCC#N)c1ccc(/C=C2\\N=C(c3ccccc3)N(c3ccc(Cl)cc3)C2=O)cc1")
"> 100 µM"
>>> data_value("OC(c1ccc(Br)cc1)(c1cccs1)C1CC1 (configuration not stated)")
"36 µM"
>>> data_value("O=c1c(Cl)c(Cl)cnn1CCc1ccncc1")
"59.6 µM"
>>> data_value("CC12CC(=O)C3C(C(=O)C1)C32C (configuration not stated)")
"> 100 µM"
>>> data_value("CC(=O)N(C(C)=O)C1=C2c3ccccc3N(S(=O)(=O)c3ccccc3)C2n2c(=O)n(-c3ccccc3)c(=O)n2C1 (configuration not stated)")
"> 100 µM"
>>> data_value("BrC/C=C/C[P+](c1ccccc1)(c1ccccc1)c1ccccc1")
"> 100 µM"
>>> data_value("COc1ccccc1-c1cc(=O)c2ccc(C)nc2[nH]1")
"> 100 µM"
>>> data_value("O=C1C=CC(=O)N1Nc1ccc([N+](=O)[O-])cc1[N+](=O)[O-]")
"> 100 µM"
>>> data_value("CC(=O)O[C@]12CCCCCC1C1(O)C(O)CCC[C@H]12 (some centres not stated)")
"> 100 µM"
>>> data_value("NC(=O)C1(N2CCCCC2)CCN(CCCC(=O)c2ccc(F)cc2)CC1")
"43.2 µM"
>>> data_value("Cn1c2ccccc2c2c(=O)c3ccccc3[nH]c21")
"> 100 µM"
>>> data_value("CCOC(=O)c1c(-c2ccc(OC)cc2)c(C#N)c(=S)n(C2OC(COC(C)=O)C(OC(C)=O)C(OC(C)=O)C2OC(C)=O)c1C (configuration not stated)")
"> 100 µM"
>>> data_value("NC(=O)/C=C/C(=O)O")
"> 5000 µM"
>>> data_value("COc1ccc(/C=C2/CCc3cc4ccc(OC)cc4[o+]c32)c(O)c1")
"19.8 µM"
>>> data_value("COc1ccc2cc3c4cc5c(cc4cc[n+]3cc2c1OC)OCO5")
"> 100 µM"
>>> data_value("CCCNC(=O)CCC(C)[C@H]1CCC2C3C(C[C@H](OC(C)=O)[C@@]21C)[C@@]1(C)CCC2(C[C@H]1C[C@H]3OC(C)=O)OOC1(CCC(C)CC1)OO2 (some centres not stated)")
"33.4 µM"
>>> data_value("O=C1C=C(O)c2[nH]c(=O)ccc2C1=O")
"> 100 µM"
>>> data_value("Cc1cn(C2OC(C)(CO)C(O)C2O)c(=O)[nH]c1=O (configuration not stated)")
"> 100 µM"
>>> data_value("CCCCC1c2c([nH]c3ccccc23)C2C(=O)N(c3ccc(OC)cc3)C(=O)C2C1CCC (configuration not stated)")
"> 10 µM"
>>> data_value("CCC(=C(c1ccc(OCCCN(C)C)cc1)c1ccc(OCCCN(C)C)cc1)c1ccc(Cl)cc1")
"0.759 µM"
